Listing of recorded inhibition at 500 µM by entry.
target-under-test: pancreatic lipase (Sus scrofa, UniProt P00591)
assay-protocol: Pancreatic lipase inhibitory activity (4-MUO fluorescence)
Type: biochemical
measurement-context: peptide concentration 0.5 mM; read-out: inhibitory percentage on pancreatic lipase
Procedure: The sample was diluted to an appropriate concentration with Tris HCl buffer. […] The fluorescence intensity was measured at excitation wavelength λex = 320 nm and emission wavelength λem = 450 nm. A buffer (25 μL) and enzyme solution (25 μL) were added for the control group. A sample solution (25 μL) and buffer (25 μL) were added for background group. Each group of experiments was repeated 3 times. […]
Peptide text beside a SMILES is read from it.
// note: answer is a bare numeric in %

Would you please look over these solved cases?
# compound, unit-abbreviation, observed-measurement
data = [
    ("CSCC[C@H](NC(=O)[C@H](CC(C)C)NC(=O)[C@H](CC(C)C)NC(=O)CNC(=O)[C@@H](N)CCC(=O)O)C(=O)N[C@@H](Cc1c[nH]c2ccccc12)C(=O)N1CCC[C@H]1C(=O)N[C@@H](Cc1ccc(O)cc1)C(=O)O [EY-8] (H-EGLLMWPY-OH)", "%", 80.5),
    ("CSCC[C@H](NC(=O)[C@H](CC(C)C)NC(=O)[C@H](CC(C)C)NC(=O)[C@@H](N)Cc1c[nH]c2ccccc12)C(=O)N[C@@H](Cc1c[nH]c2ccccc12)C(=O)N1CCC[C@H]1C(=O)N[C@@H](Cc1ccc(O)cc1)C(=O)N[C@@H](CCCCN)C(=O)O [WK-8] (H-WLLMWPYK-OH)", "%", 67.3),
    ("CC(C)C[C@H](NC(=O)[C@@H](N)CC(N)=O)C(=O)N[C@@H](Cc1ccc(O)cc1)C(=O)N[C@@H](Cc1ccc(O)cc1)C(=O)N[C@@H](CCCCN)C(=O)N[C@H](C(=O)N[C@H](C(=O)O)C(C)C)C(C)C [NV-7, NLYYKVV] (H-NLYYKVV-OH)", "%", 95.4),
]

// below: inhibition at 500 µM requested for another compound
Query block: // lookup inhibition at 500 µM | system=pancreatic lipase (Sus scrofa, UniProt P00591) | key= CC(C)[C@H](NC(=O)[C@H](Cc1ccc(O)cc1)NC(=O)[C@H](Cc1c[nH]c2ccccc12)NC(=O)[C@@H](N)Cc1c[nH]c2ccccc12)C(=O)N[C@@H](CCCCN)C(=O)O [WK-5, WWYVK] (H-WWYVK-OH)
Result block: 68.9

---

Listing of recorded Ki by entry.
target-under-test: pancreatic lipase (Sus scrofa, UniProt P00591)
Sequence (P00591 1-450): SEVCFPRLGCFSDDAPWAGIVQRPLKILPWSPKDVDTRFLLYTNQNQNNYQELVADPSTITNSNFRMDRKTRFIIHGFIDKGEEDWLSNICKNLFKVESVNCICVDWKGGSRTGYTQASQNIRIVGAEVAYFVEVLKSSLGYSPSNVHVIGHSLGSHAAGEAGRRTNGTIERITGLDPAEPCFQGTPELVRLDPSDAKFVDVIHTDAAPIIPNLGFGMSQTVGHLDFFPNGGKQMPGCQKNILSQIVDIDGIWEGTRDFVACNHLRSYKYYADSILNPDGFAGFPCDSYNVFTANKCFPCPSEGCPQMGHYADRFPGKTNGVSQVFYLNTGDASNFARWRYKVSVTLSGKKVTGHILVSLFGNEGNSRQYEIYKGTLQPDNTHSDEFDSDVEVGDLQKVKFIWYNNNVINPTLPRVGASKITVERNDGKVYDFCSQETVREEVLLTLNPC
Peptide text beside a SMILES is read from it.
// note: answer is a bare numeric in µM

Would you please look over these solved cases?
# compound, observed-measurement
data = [
    ("CC(C)[C@H](NC(=O)[C@H](Cc1ccc(O)cc1)NC(=O)[C@H](Cc1c[nH]c2ccccc12)NC(=O)[C@@H](N)Cc1c[nH]c2ccccc12)C(=O)N[C@@H](CCCCN)C(=O)O [WK-5, WWYVK] (H-WWYVK-OH)", 578),
    ("CSCC[C@H](NC(=O)[C@H](CC(C)C)NC(=O)[C@H](CC(C)C)NC(=O)CNC(=O)[C@@H](N)CCC(=O)O)C(=O)N[C@@H](Cc1c[nH]c2ccccc12)C(=O)N1CCC[C@H]1C(=O)N[C@@H](Cc1ccc(O)cc1)C(=O)O [EY-8] (H-EGLLMWPY-OH)", 578),
]

Query block: # query: Ki of entry CSCC[C@H](NC(=O)[C@H](CC(C)C)NC(=O)[C@H](CC(C)C)NC(=O)[C@@H](N)Cc1c[nH]c2ccccc12)C(=O)N[C@@H](Cc1c[nH]c2ccccc12)C(=O)N1CCC[C@H]1C(=O)N[C@@H](Cc1ccc(O)cc1)C(=O)N[C@@H](CCCCN)C(=O)O [WK-8] (H-WLLMWPYK-OH)
Result block: 192

Query block: Now consider CC(C)C[C@H](NC(=O)[C@@H](N)CC(N)=O)C(=O)N[C@@H](Cc1ccc(O)cc1)C(=O)N[C@@H](Cc1ccc(O)cc1)C(=O)N[C@@H](CCCCN)C(=O)N[C@H](C(=O)N[C@H](C(=O)O)C(C)C)C(C)C [NV-7, NLYYKVV] (H-NLYYKVV-OH) and answer again.
Result block: 77.3
